target: WDR5 (human, UniProt P61964 1-334); test: competition FP
reported.property: pIC50
Lab note: report pIC50 as minus log10 of the concentration in molar units, number only.

1) GGGGGCTGGACCCCTCAACT (structured_DNA) [WMiApt-1]
6.37

Now, please, on to the next binder.
Prompt line: Using the record for GGACC (ssDNA) [WDR5 lead sequence (H4)] , report its pIC50.
Response line: 5.07
